Entries and their remaining activity at 100 µM values follow.
- EXPERIMENTAL TARGET: α-synuclein (α-syn) (Homo sapiens, UniProt P37840)
- Construct: purchased rPeptide, LLC (Watkinsville, GA)
- PROCEDURE DETAILS: Thioflavin T (ThT) fluorescence assay of α-syn fibril formation
- Assay type: biochemical
- CONDITION DETAILS: compound 100 μM; ThT fluorescence intensity at plateau phase, control = 100%
RESULT TYPE: remaining activity at 100 µM (%)

[[record]]
compound = "O=C(Nc1cccc2[nH]ccc12)c1ccc(C(F)(F)F)cc1"
value_modifier = "≤"
endpoint_value = 30

[[record]]
compound = "O=C(Nc1cccc2[nH]ccc12)c1cccs1"
value_modifier = "="
endpoint_value = 64

[[record]]
compound = "O=C(Nc1ccc2[nH]ccc2c1)c1ccc(Cl)cc1 [Compound 12, 4-chloro-N-(1H-indol-5-yl)benzamide]"
value_modifier = "="
endpoint_value = 67.5

[[record]]
compound = "O=C(Nc1ccc2[nH]ccc2c1)c1cccs1 [Compound 9, N-(1H-indol-5-yl)thiophene-2-carboxamide]"
value_modifier = "="
endpoint_value = 40.5

[[record]]
compound = "O=C(Nc1cccc2[nH]ccc12)c1ccc(Cl)cc1 [Compound 4, 4-chloro-N-(1H-indol-4-yl)benzamide]"
value_modifier = "≤"
endpoint_value = 30

[[record]]
compound = "O=C(Nc1cccc2[nH]ccc12)c1ccccc1Cl [Compound 5, 2-chloro-N-(1H-indol-4-yl)benzamide]"
value_modifier = "≤"
endpoint_value = 30

[[record]]
compound = "O=C(Nc1cccc2[nH]ccc12)c1ccc(F)cc1 [Compound 8, 4-fluoro-N-(1H-indol-4-yl)benzamide]"
value_modifier = "≤"
endpoint_value = 30

[[record]]
compound = "N#Cc1ccc(C(=O)Nc2ccc3[nH]ccc3c2)cc1 [Compound 15, 4-cyano-N-(1H-indol-5-yl)benzamide]"
value_modifier = "="
endpoint_value = 62.7

[[record]]
compound = "O=C(Nc1cccc2[nH]ccc12)c1ccccc1 [Compound 2, N-(1H-indol-4-yl)benzamide]"
value_modifier = "≤"
endpoint_value = 30

[[record]]
compound = "N#Cc1ccc(C(=O)Nc2cccc3[nH]ccc23)cc1 [Compound 7, 4-cyano-N-(1H-indol-4-yl)benzamide]"
value_modifier = "≤"
endpoint_value = 30

[[record]]
compound = "O=C(Nc1ccc2c(c1)Cc1ccccc1-2)c1ccc(Cl)cc1 [Compound 18, 4-chloro-N-(9H-fluoren-2-yl)benzamide]"
value_modifier = "="
endpoint_value = 69.4

[[record]]
compound = "Nc1cccc(C(=O)Nc2ccc3[nH]ccc3c2)c1 [Compound 17, 3-amino-(1H-indol-5-yl)benzamide]"
value_modifier = "="
endpoint_value = 40

[[record]]
compound = "O=C(Nc1ccc2[nH]ccc2c1)c1ccccc1 [Compound 10, N-(1H-indol-5-yl)benzamide]"
value_modifier = "="
endpoint_value = 102

[[record]]
compound = "O=C(Nc1ccc2[nH]ccc2c1)c1ccc(F)cc1 [Compound 16, 4-fluoro-N-(1H-indol-5-yl)benzamide]"
value_modifier = "="
endpoint_value = 48.5

[[record]]
compound = "COc1cccc(C(=O)Nc2ccc3[nH]ccc3c2)c1 [Compound 11, N-(1H-indol-5-yl)-3-methoxybenzamide]"
value_modifier = "="
endpoint_value = 48.6

[[record]]
compound = "O=C(Nc1ccc2[nH]ccc2c1)c1ccccc1Cl [Compound 13, 2-chloro-N-(1H-indol-5-yl)benzamide]"
value_modifier = "="
endpoint_value = 73.7

